Ref: patent US20240209076A1

Target: T1, recombinant human IL-6 (human, UniProt P05231 30-212)
T1 construct: Bought protein
T1 sequence (P05231 30-212 limits assumed): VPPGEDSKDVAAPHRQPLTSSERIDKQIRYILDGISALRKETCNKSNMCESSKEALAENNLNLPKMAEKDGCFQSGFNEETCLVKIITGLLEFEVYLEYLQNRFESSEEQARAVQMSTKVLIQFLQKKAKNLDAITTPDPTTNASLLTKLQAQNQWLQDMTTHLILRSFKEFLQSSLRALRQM
Assay: SPR Biacore, supernatant Ab on Protein A chip, IL-6 analyte, 25 C

{"columns": ["Binder", "Kd"],
 "data": [
  ["anti-IL-6 antibody, light chain A54Y (heavy chain WT) (antibody, V domains shown, See note of m2; also called WT / A54Y) VH: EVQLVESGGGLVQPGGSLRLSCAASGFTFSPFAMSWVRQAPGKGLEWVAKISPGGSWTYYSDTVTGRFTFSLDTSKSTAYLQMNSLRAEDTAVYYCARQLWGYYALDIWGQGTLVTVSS VL: DIQLTQSPSSLSASVGDRVTITCSASISVSYMYWYQQKPGKAPKLLIYDMSNLYSGVPSRFSGSGSGTDFTLTISSLQPEDFATYYCMQWSGYPYTFGQGTKVEIK", "0.168 nM"],
  ["anti-IL-6 antibody, heavy chain variant II (M34W, G66D, I108V) / light chain variant III (M32L, M50D, N52S, M88Q) (antibody, V domains shown, See note of m39; also called M34W, G66D, I108V/ M32L, M50D, N52S, M88Q; II/III) VH: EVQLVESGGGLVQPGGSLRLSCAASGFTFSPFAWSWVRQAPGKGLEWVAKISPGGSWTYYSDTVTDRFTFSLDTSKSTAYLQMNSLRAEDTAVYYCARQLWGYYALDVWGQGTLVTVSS VL: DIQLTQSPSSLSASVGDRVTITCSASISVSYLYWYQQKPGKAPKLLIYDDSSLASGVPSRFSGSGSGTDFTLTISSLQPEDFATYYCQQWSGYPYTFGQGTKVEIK", "0.37 nM"],
  ["anti-IL-6 antibody, light chain S55W (heavy chain WT) (antibody, V domains shown, See note of m2; also called WT / S55W) VH: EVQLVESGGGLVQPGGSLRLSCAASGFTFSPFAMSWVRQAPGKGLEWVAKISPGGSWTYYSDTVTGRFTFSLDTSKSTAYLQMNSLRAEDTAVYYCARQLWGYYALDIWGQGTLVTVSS VL: DIQLTQSPSSLSASVGDRVTITCSASISVSYMYWYQQKPGKAPKLLIYDMSNLAWGVPSRFSGSGSGTDFTLTISSLQPEDFATYYCMQWSGYPYTFGQGTKVEIK", "0.401 nM"]
]}
